Would you mind telling me the reported pEC50 of each entry?
System: ML-2
Experiment: cells
Parameters: species or system AML cell lines (8); Secondary HTS, 10-point dose-response in triplicate, Cell Titer Glo viability, four-parameter fit EC50
Conditions: Homo sapiens, ML-2, 72 h, read-out: ML-2
pEC50: −log10 of the molar value.

{"COMPOUND": "Cc1c(N)nc([C@H](CC(N)=O)NC[C@H](N)C(N)=O)nc1C(=O)N[C@H](C(=O)N[C@H](C)[C@@H](O)[C@H](C)C(=O)N[C@H](C(=O)NCCc1nc(-c2nc(C(=O)NCCC[S+](C)C)cs2)cs1)[C@@H](C)O)[C@@H](OC1OC(CO)C(O)C(O)C1OC1OC(CO)C(O)C(OC(N)=O)C1O)c1cnc[nH]1 (stereo partly drawn) [SJ000804032, BLEOMYCIN]", "pEC50": "< 5.00"}

// for each compound in input: emit pEC50
1. COC1=C2C[C@@H](C)C[C@H](OC)[C@H](O)[C@@H](C)/C=C(\C)[C@H](OC(N)=O)[C@@H](OC)/C=C\C=C(/C)C(=O)NC(=CC1=O)C2=O [SJ000796035, GELDANOMYCIN]
2. COC(=O)[C@H](CCSC)NC(=O)c1ccc(NC[C@@H](N)CS)cc1-c1ccccc1 [SJ000803699, FTI-277]
3. CCCCNc1ncc2c(-c3ccc(CN4CCN(C)CC4)cc3)cn(C3CCC(O)CC3)c2n1 (stereo not drawn) [SJ000821849, UNC2025A]
4. CC[C@H](Nc1ncnc2[nH]cnc12)c1nc2cccc(F)c2c(=O)n1-c1ccccc1 [IDELALISIB]
5. CC(C)(C#N)c1cc(Cn2cncn2)cc(C(C)(C)C#N)c1 [ANASTROZOLE]

1: < 5.00; 2: < 5.00; 3: 5.30; 4: < 5.00; 5: < 5.00

meta.source: paper PMC6522510
